# System: HeLa Kyoto;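 note: synchronized HeLa Kyoto cells (double thymidine block for G1/S, nocodazole release for mitosis), protein amounts in NP-40 versus SDS lysates quantified by mass spectrometry, three biological replicates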
# assay-name: solubility change mitosis vs G1/S (difference of NP-40 vs SDS log2 ratios) (log2 ratio difference); higher = more soluble in mitosis
assay-metric: solubility change mitosis (log2)
Numbers only.

Look up solubility change mitosis (log2) for the entries below, preserving their order.
1. MALLVRVLRNQTSISQWVPVCSRLIPVSPTQGQGDRALSRTSQWPQMSQSRACGGSEQIPGIDIQLNRKYHTTRKLSTTKDSPQPVEEKVGAFTKIIEAMGFTGPLKYSKWKIKIAALRMYTSCVEKTDFEEFFLRCQMPDTFNSWFLITLLHVWMCLVRMKQEGRSGKYMCRIIVHFMWEDVQQRGRVMGVNPYILKKNMILMTNHFYAAILGYDEGILSDDHGLAAALWRTFFNRKCEDPRHLELLVEYVRKQIQYLDSMNGEDLLLTGEVSWRPLVEKNPQSILKPHSPTYNDEGL [UQCC1]
2. MDSALSDPHNGSAEAGGPTNSTTRPPSTPEGIALAYGSLLLMALLPIFFGALRSVRCARGKNASDMPETITSRDAARFPIIASCTLLGLYLFFKIFSQEYINLLLSMYFFVLGILALSHTISPFMNKFFPASFPNRQYQLLFTQGSGENKEEIINYEFDTKDLVCLGLSSIVGVWYLLRKHWIANNLFGLAFSLNGVELLHLNNVSTGCILLGGLFIYDVFWVFGTNVMVTVAKSFEAPIKLVFPQDLLEKGLEANNFAMLGLGDVVIPGIFIALLLRFDISLKKNTHTYFYTSFAAYIFGLGLTIFIMHIFKHAQPALLYLVPACIGFPVLVALAKGEVTEMFSYEESNPKDPAAVTESKEGTEASASKGLEKKEK [HM13]

Reply:
1. -0.25
2. -0.167

src = the supplement of paper PMC5998384
